Tested on: H5N1 subtype
Test: Inhibition of H5N1 subtype hemagglutinin adsorption into chicken RBC at 100 ug/mL
Active and inactive are the calls of the source. The calls are words filed in the database; no cut-off is given here.
Attribute Measured: inhibition

{"Compound": "Cc1cc2c(C(C)C)c(O)c(O)c(C(=O)O)c2c(O)c1-c1c(C)cc2c(C(C)C)c(O)c(O)c(C(=O)O)c2c1O", "Result": "inactive"}
{"Compound": "Cc1cc2c(c(O)c1-c1c(C)cc3c(c1O)/C(=C/N[C@@H](C)C(=O)O)C(=O)C(O)=C3C(C)C)/C(=C/N[C@@H](C)C(=O)O)C(=O)C(O)=C2C(C)C (stereo in doubt; (+)-5b)", "Result": "inactive"}
{"Compound": "Cc1cc2c(C(C)C)c(O)c(O)c(C=O)c2c(O)c1-c1c(C)cc2c(C(C)C)c(O)c(O)c(C=O)c2c1O", "Result": "inactive"}
{"Compound": "Cc1cc2c(c(O)c1-c1c(C)cc3c(c1O)/C(=C/N[C@@H](C)C(=O)O)C(=O)C(O)=C3C(C)C)/C(=C/N[C@@H](C)C(=O)O)C(=O)C(O)=C2C(C)C (stereo in doubt; (-)-5a)", "Result": "inactive"}
